# Test system: SF-295
# EXPERIMENT_DESCRIPTION: NCI tumour cell line growth inhibition, 48 h
Active and inactive are the calls of the source. No stated cut-off is given here; in the data, active = GI50 up to about 1.1 µM and inactive = higher.
Outcome field: choose from active, inactive

Use these answered entries as a reference point.
O=C1CCc2nc3ncccc3cc2C1 :: inactive
Cc1ccc(C2=C(c3ccccc3)C(O)(c3ccc(C)cc3)C(c3ccccc3)=C2c2ccc(C)cc2)cc1 :: inactive
CCOC(=O)N1CCC2(CC1)C[C@](C)(C(C)=O)C(C)O2 (stereo partly drawn) :: inactive
CSc1nc(Nc2cccc(C(F)(F)F)c2)c2c(N)nn(C)c2n1 :: inactive

Lookup: Per the assay record, what outcome was assigned to CC1(C)OC2C(COC(c3ccccc3)(c3ccccc3)c3ccccc3)OC(c3c[nH]c4c(N)ncnc34)C2O1 (stereo not drawn) ?
Found: inactive

Lookup: Per the assay record, what outcome was assigned to `Cc1cc(NS(=O)(=O)c2ccc(Nc3c4ccccc4nc4c(C(=O)NCCN(C)C)ccc(Cl)c34)cc2)no1` ?
Found: inactive

Lookup: Per the assay record, what outcome was assigned to `CC(C)=CCC[C@@H](C)C1=C(O)C(=O)C(C)=C(Nc2ccccc2I)C1=O` ?
Found: inactive

Lookup: Per the assay record, what outcome was assigned to `Cc1c2ccncc2c(C)c2c1[nH]c1ccc(OCCN(C)C)cc12` ?
Found: active
